# targetEntity: horseradish peroxidase (HRP) tagged delF508-CFTR (Homo sapiens, UniProt P13569, DEL508-508)
# Construct: expressed in transfected cells
# Sequence (P13569 with tags, fused parts or gaps DEL508-508): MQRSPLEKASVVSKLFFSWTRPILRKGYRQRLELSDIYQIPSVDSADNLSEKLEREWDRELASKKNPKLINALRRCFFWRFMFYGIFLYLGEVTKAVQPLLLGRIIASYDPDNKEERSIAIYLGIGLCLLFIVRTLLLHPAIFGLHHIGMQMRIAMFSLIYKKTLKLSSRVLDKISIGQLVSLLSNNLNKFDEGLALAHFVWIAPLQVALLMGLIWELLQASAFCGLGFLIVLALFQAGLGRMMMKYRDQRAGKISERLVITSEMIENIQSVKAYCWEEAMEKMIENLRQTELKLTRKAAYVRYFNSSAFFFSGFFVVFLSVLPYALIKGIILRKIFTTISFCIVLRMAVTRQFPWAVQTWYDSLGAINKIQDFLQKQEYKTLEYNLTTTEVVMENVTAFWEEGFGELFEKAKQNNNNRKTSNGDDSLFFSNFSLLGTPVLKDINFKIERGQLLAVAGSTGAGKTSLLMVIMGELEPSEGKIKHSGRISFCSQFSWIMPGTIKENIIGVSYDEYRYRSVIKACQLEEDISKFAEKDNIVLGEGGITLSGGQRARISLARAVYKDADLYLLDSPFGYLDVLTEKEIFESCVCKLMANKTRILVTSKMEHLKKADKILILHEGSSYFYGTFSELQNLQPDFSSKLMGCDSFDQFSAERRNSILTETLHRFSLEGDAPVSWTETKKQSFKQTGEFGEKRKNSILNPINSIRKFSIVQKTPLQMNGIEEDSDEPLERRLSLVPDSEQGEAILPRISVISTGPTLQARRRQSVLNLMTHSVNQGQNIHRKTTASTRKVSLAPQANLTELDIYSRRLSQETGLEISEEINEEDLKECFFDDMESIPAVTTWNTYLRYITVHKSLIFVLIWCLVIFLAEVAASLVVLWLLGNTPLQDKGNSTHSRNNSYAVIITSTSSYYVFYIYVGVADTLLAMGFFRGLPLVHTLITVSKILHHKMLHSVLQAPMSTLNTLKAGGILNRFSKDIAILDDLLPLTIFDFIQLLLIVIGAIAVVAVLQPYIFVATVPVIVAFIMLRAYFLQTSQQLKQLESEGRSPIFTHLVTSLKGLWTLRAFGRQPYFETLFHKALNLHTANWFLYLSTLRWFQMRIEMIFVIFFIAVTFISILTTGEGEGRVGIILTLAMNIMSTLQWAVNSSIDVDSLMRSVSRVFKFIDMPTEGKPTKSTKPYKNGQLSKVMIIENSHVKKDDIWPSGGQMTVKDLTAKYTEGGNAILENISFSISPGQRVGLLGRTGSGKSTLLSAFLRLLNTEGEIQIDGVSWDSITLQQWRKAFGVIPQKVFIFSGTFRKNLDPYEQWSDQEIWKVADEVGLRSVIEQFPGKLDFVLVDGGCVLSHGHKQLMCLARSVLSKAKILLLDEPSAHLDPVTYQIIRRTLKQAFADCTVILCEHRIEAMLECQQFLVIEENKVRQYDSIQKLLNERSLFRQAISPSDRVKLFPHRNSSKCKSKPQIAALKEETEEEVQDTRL
# assayMethodText: Measurement of delF508-CFTR-HRP surface expression in CFBE41o- cells
# Type: cell-based
# conditionSet: delF508-CFTR-HRP surface expression, CFBE41o- cells; read-out: DelF508-CFTR-HRP EC50
Counter-ions that a name gives are not always drawn.
Let's look at some compounds and their measured EC50.
readoutType: EC50 (nM)

Cc1c(F)cccc1-c1nc(NS(=O)(=O)c2cccc(N3CCN(C(C)(C)C)CC3)n2)ccc1C(F)(F)F    2630
Cc1ccccc1-c1nc(NS(=O)(=O)c2cccc(N3C[C@H](O)[C@@H](N4CCCC4)C3)n2)ccc1C(F)(F)F    2600
Nc1cccc(S(=O)(=O)Nc2ccc(Cl)c(-c3ccc(F)cc3C3CC3)n2)n1    1720
Cc1ccccc1-c1nc(NS(=O)(=O)c2cccc(N3CC4C(N)C4C3)n2)ccc1C(F)(F)F (stereo not shown) [Example 107, Hydrochloride]    1990
